Test system: FMDV serotype A
metric: pEC50
Keep it numeric: pEC50 is minus log10 of the concentration in mol/L.

Returns the measured pEC50 for the input molecule. Input: C=C1CC[C@@H]2[C@](C)(CO[C@@H]3O[C@H](CO)[C@@H](O)[C@H](O)[C@H]3O)CCC[C@@]2(C)[C@@H]1CCC1=CCOC1=O [NEO, neoandrographolide]
3.27

----------
Tested on: BHK-21 cells
experimental.conditions: hamster
metric: CC50 (µM)
Respond numerically; units are µM and should not be typed.

C=C1CC[C@@H]2[C@](C)(CO)[C@H](O)CC[C@@]2(C)[C@@H]1CCC1=CCOC1=O [DAG, deoxyandrographolide] :: 332

Now look at this one.
Which CC50 is reported with BHK-21 cells for this entry: C=C1CC[C@@H]2[C@](C)(CO[C@@H]3O[C@H](CO)[C@@H](O)[C@H](O)[C@H]3O)CCC[C@@]2(C)[C@@H]1CCC1=CCOC1=O [NEO, neoandrographolide] ?
212

----------
assay.method.text: in vitro
experimental.conditions: human
Measured CC50 accompanies every entry in the list below.
Give the value, in units of µM, as a plain number.

These recorded examples may help you get a feel for the data.
C=C1CC[C@@H]2[C@](C)(CO)[C@H](O)CC[C@@]2(C)[C@@H]1C/C=C1/C(=O)OC[C@H]1O [AGL, andrographolide] :: 453
C=C1CC[C@@H]2[C@](C)(CO[C@@H]3O[C@H](CO)[C@@H](O)[C@H](O)[C@H]3O)CCC[C@@]2(C)[C@@H]1CCC1=CCOC1=O [NEO, neoandrographolide] :: 914

Now let's try a different one.
Reported CC50, compound C=C1CC[C@@H]2[C@](C)(CO)[C@H](O)CC[C@@]2(C)[C@@H]1CCC1=CCOC1=O [DAG, deoxyandrographolide] : ____
651

----------
assay.method.text: in vitro
experimental.conditions: hamster
metric: CC50 (µM)
Numeric only. Scale: µM

C=C1CC[C@@H]2[C@](C)(CO[C@@H]3O[C@H](CO)[C@@H](O)[C@H](O)[C@H]3O)CCC[C@@]2(C)[C@@H]1CCC1=CCOC1=O [NEO, neoandrographolide] :: 332
C=C1CC[C@@H]2[C@](C)(CO)[C@H](O)CC[C@@]2(C)[C@@H]1C/C=C1/C(=O)OC[C@H]1O [AGL, andrographolide] :: 117

Please examine the following record next.
Sample C=C1CC[C@@H]2[C@](C)(CO)[C@H](O)CC[C@@]2(C)[C@@H]1CCC1=CCOC1=O [DAG, deoxyandrographolide] — what was its CC50?
212

----------
target.or.test.system: FMDV 3C^pro (Foot-and-mouth disease virus)
Sequence (P03306 1650-1862 limits assumed): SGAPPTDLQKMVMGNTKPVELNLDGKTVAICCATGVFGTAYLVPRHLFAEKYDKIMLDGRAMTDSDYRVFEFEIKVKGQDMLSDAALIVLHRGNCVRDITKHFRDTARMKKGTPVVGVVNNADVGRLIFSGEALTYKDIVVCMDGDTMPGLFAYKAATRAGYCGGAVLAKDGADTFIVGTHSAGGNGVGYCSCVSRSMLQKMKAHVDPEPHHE
Readings of pIC50 for the listed compounds
Scale: negative log10 of molar concentration, which is what pIC50 denotes.

C=C1CC[C@@H]2[C@](C)(CO)[C@H](O)CC[C@@]2(C)[C@@H]1CCC1=CCOC1=O [DAG, deoxyandrographolide] :: 4.59

Find the measured pIC50: item C=C1CC[C@@H]2[C@](C)(CO)[C@H](O)CC[C@@]2(C)[C@@H]1C/C=C1/C(=O)OC[C@H]1O [AGL, andrographolide] , target or system FMDV 3C^pro (Foot-and-mouth disease virus).
4.17

Provide the documented pIC50 with FMDV 3C^pro (Foot-and-mouth disease virus) as the system for C=C1CC[C@@H]2[C@](C)(CO[C@@H]3O[C@H](CO)[C@@H](O)[C@H](O)[C@H]3O)CCC[C@@]2(C)[C@@H]1CCC1=CCOC1=O [NEO, neoandrographolide]
3.95
